System: Escherichia coli 0-111
EXPERIMENTAL DETAILS: Minimal inhibitory concentration, agar serial dilution
Assay type: cell-based
CONDITION DETAILS: TSA, inoculum 10^7 /ml
Quick rule for you: Minimal inhibitory concentration (MIC) at 0.2 or higher means YES, lower means NO.

Reported Minimal inhibitory concentration (MIC) at or above 0.2? N=c1[nH]c(/C(=N/O)C(=O)NC2C(=O)N3C(C(=O)O)=C(COC(N)=O)CSC23)cs1 (centres unmarked)
NO

Reported Minimal inhibitory concentration (MIC) at or above 0.2? Cc1nnc(SCC2=C(C(=O)O)N3C(=O)C(NC(=O)/C(=N\O)c4csc(=N)[nH]4)C3SC2)s1 (centres unmarked)
NO

Reported Minimal inhibitory concentration (MIC) at or above 0.2? CC(=O)OCC1=C(C(=O)[O-])N2C(=O)C(NC(=O)Cc3cccs3)[C@H]2SC1.[Na+] (some centres unmarked) [Cephalothin, reference compound]
YES

Reported Minimal inhibitory concentration (MIC) at or above 0.2? Cc1nnc(SCC2=C(C(=O)[O-])N3C(=O)C(NC(=O)Cn4cnnn4)[C@H]3SC2)s1.[Na+] (some centres unmarked) [Cefazolin, reference compound]
YES

Reported Minimal inhibitory concentration (MIC) at or above 0.2? Cn1nnnc1SCC1=C(C(=O)O)N2C(=O)C(NC(=O)/C(=N\O)c3csc(=N)[nH]3)C2SC1 (centres unmarked)
NO

Reported Minimal inhibitory concentration (MIC) at or above 0.2? N=c1[nH]c(/C(=N/O)C(=O)NC2C(=O)N3C(C(=O)O)=C(CSc4cnn[nH]4)CSC23)cs1 (centres unmarked)
NO

Reported Minimal inhibitory concentration (MIC) at or above 0.2? CC(=O)OCC1=C(C(=O)O)N2C(=O)C(NC(=O)/C(=N\O)c3csc(=N)[nH]3)C2SC1 (centres unmarked)
NO

Reported Minimal inhibitory concentration (MIC) at or above 0.2? Cn1cnnc1SCC1=C(C(=O)O)N2C(=O)C(NC(=O)/C(=N\O)c3csc(=N)[nH]3)C2SC1 (centres unmarked)
NO

Reported Minimal inhibitory concentration (MIC) at or above 0.2? O=C(Cc1cccs1)N[C@@H]1C(=O)N2C(C(=O)[O-])=C(C[n+]3ccccc3)CS[C@H]12 [Cephaloridine, reference compound]
YES

Where do these numbers come from? They come from patent US4963542A.
